Listed here: items and their measured IC50.
target: PRMT5 (Homo sapiens, UniProt O14744); construct: purchased Viva (custom protein); assay: PRMT5 IC50 assay in the presence of SAM as cofactor; assay type: biochemical
Sequence (O14744 whole entry): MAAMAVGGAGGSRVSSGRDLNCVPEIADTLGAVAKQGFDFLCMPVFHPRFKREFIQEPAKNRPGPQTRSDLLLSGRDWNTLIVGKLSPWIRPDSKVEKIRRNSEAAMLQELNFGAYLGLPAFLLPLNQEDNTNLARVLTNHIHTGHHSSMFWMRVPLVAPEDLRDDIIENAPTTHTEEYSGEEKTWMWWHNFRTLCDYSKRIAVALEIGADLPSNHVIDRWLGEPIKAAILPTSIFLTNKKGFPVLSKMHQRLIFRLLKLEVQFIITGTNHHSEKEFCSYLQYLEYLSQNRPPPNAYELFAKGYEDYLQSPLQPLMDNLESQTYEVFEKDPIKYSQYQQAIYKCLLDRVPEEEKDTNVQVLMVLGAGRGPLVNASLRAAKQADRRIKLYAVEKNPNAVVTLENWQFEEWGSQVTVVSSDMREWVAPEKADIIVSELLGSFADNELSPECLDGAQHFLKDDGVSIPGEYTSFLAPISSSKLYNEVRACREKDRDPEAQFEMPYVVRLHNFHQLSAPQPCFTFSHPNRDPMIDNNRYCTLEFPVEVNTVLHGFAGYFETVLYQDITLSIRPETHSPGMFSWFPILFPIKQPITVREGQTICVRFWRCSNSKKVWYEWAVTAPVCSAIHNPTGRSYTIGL
Sequence (Q9BQA1 whole entry partner): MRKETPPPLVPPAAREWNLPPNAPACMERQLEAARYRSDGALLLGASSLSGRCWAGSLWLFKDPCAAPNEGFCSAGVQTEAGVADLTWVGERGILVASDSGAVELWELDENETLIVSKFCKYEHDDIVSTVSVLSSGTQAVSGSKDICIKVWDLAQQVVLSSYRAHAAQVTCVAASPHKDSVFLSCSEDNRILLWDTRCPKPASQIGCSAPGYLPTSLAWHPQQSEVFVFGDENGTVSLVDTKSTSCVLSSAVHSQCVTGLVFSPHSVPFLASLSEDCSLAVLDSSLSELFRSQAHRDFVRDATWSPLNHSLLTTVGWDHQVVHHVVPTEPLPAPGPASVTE

Worked cases, IC50 given:
CC(=O)N1CC(Nc2cc(C(=O)NC[C@H](O)CN3CCc4c(ccc(OCc5cnco5)c4Cl)C3)nc(C(C)(C)C)n2)C1	50 to 500 nM
O=C(NC[C@H](O)CN1CCc2c(Cl)c(OCc3cnco3)cc(F)c2C1)c1ccnc(NC2CCC2)c1	50 to 500 nM
O=C(NC[C@H](O)CN1CCc2c(ccc(OCc3cnco3)c2Cl)C1)c1cc(NC2CCCC2)ncn1	500 to 5000 nM
Cc1ncoc1COc1ccc2c(c1)CCN(C[C@@H](O)CNC(=O)c1ccc(OC3CCN(Cc4ccncc4)CC3)cc1)C2	50 to 500 nM
Cc1ncoc1COc1ccc2c(c1)CCN(C[C@@H](O)CNC(=O)c1cc(NC3COC3)nc(N3CCN(C(C)C)CC3)n1)C2	50 to 500 nM

Lab note: PRMT5 (Homo sapiens, UniProt O14744) assay, enter IC50 for CC(C)C(=O)N1CCN(c2cc(C(=O)NC[C@H](O)CN3CCc4c(ccc(OCc5cnco5)c4Cl)C3)cc(NC3CCC3)n2)CC1 here
50 to 500 nM

Lab note: PRMT5 (Homo sapiens, UniProt O14744) assay, enter IC50 for O=C(NC[C@H](O)CN1CCc2c(ccc(OCc3cnco3)c2Cl)C1)c1cc(NC2CCC2)ncn1 here
500 to 5000 nM

###

test system: HAP1 MTAP-intact; assay: SDMA in-cell western assay, HAP1 MTAP-intact cell line; format: cell-based; conditions: Homo sapiens
OBSERVABLE: IC50

Worked cases, IC50 given:
Cc1ncoc1COc1ccc2c(c1C)CCN(C[C@@H](O)CNC(=O)c1cc(NC3CCC3)ccn1)C2 [Compound 555]	≥ 10 µM
Cc1ncoc1COc1ccc2c(n1)CCN(C[C@@H](O)CNC(=O)c1ccnc(NC3CCC3)c1)C2 [Compound 467]	≥ 10 µM
Cc1ncoc1COc1ccc2c(c1)CCN(C[C@@H](O)CNC(=O)c1cc(NC3CCC3)nc(N3CCN(C(=O)C4CC4)CC3)c1)C2 [Compound 455]	< 1 µM
O=C(NC[C@H](O)CN1CCc2cc(OCc3cnco3)ccc2C1)c1ccnc(Nc2cccnc2)c1 [Compound 399]	1 to 10 µM
Cc1c(OCc2cnco2)ccc2c1CCN(C[C@@H](O)CNC(=O)c1ccnc(NC3CN(C(=O)CC(C)C)C3)c1)C2 [Compound 522]	≥ 10 µM
CC(C)N1CCN(c2nc(NC3COC3)cc(C(=O)NC[C@H](O)CN3CCc4c(ccc(OCc5cnco5)c4Cl)C3)n2)CC1 [Compound 293]	≥ 10 µM
CC(=O)N(C)[C@H]1CC[C@H](Nc2cc(C(=O)NC[C@H](O)CN3CCc4c(ccc(OCc5cnco5)c4C)C3)ncn2)CC1 [Compound 605]	≥ 10 µM
O=C(NC[C@H](O)CN1CCc2c(ccc(OCc3cnco3)c2Cl)C1)c1ccnc(NC2CCC(F)CC2)c1 (some centres unmarked) [Compound 311]	≥ 10 µM
O=C(NC[C@H](O)CN1CCc2c(ccc(OCc3cnco3)c2Cl)C1)c1ccnc(NC2CC(F)(F)C2)c1 [Compound 357]	≥ 10 µM
Cc1ncoc1COc1ccc2c(c1)CCN(C[C@@H](O)CNC(=O)c1cncc(NC3CCC3)c1)C2 [Compound 271]	< 1 µM

Entry COc1cc(C(=O)NC[C@H](O)CN2CCc3c(ccc(OCc4ocnc4C)c3C)C2)cc(NC2CCN(C(C)=O)CC2)n1 [Compound 604] needs its IC50 filled in; supply it.
1 to 10 µM

Entry Cc1ncoc1COc1ccc2c(c1C)CCN(C[C@@H](O)CNC(=O)c1ccc3c(c1)CCN(C(=O)c1ccc(Br)cc1)C3)C2 [Compound 530] needs its IC50 filled in; supply it.
≥ 10 µM

Entry Cc1c(OCc2cnco2)ccc2c1CCN(C[C@@H](O)CNC(=O)c1ccnc(NC3CC4(CCC4)C3)c1)C2 [Compound 473] needs its IC50 filled in; supply it.
≥ 10 µM

Entry Cc1ncoc1COc1ccc2c(c1Cl)CCN(C[C@@H](O)CNC(=O)c1cccc(NC3COC3)c1)C2 [Compound 490] needs its IC50 filled in; supply it.
≥ 10 µM

###

target: PRMT5 (Homo sapiens); construct: purchased Viva (custom protein); test: PRMT5 IC50 assay in the presence of MTA as cofactor; format: biochemical; settings: PRMT5, MTA as cofactor
OBSERVABLE: IC50

COc1cnc(NC2CCN(C(C)=O)CC2)cc1C(=O)NC[C@H](O)CN1CCc2cc(OCc3ocnc3C)ccc2C1	< 50 nM

Lab note: PRMT5 (Homo sapiens) assay, enter IC50 for CCN1CCN(c2cc(C(=O)NC[C@H](O)CN3CCc4c(ccc(OCc5ocnc5C)c4C)C3)cc(NC3CCC3)n2)CC1 here
50 to 500 nM

Lab note: PRMT5 (Homo sapiens) assay, enter IC50 for CC(=O)N1CCC(Nc2cc(C(=O)NC[C@H](O)CN3CCc4c(ccc(OCc5cn[nH]c5)c4Cl)C3)ncn2)CC1 here
50 to 500 nM

###

molecular target: PRMT5 (Homo sapiens); construct: purchased Viva (custom protein); assay: PRMT5 IC50 assay in the presence of SAM as cofactor; assay type: biochemical
pIC50: −log10 of the molar value.
OBSERVABLE: pIC50

CO[C@H]1CC[C@@H](Nc2cc(C(=O)NC[C@H](O)CN3CCc4c(ccc(OCc5cnco5)c4C)C3)ncn2)CC1	5.30 to 6.30
O=C(NC[C@H](O)CN1CCc2cc(OCc3cnco3)ccc2C1)c1cccc(NC2CCC2)c1	5.30 to 6.30
O=C(NC[C@H](O)CN1CCc2cc(OCc3cnco3)ccc2C1)c1cc(NC2COC2)nc(N2CCN(C(=O)C3CC3)CC2)n1	6.30 to 7.30
Cc1ncoc1COc1ccc2c(c1Cl)CCN(C[C@@H](O)CNC(=O)c1cc(NC3CCCC3)ncn1)C2	5.30 to 6.30
Cn1nccc1COc1cc(F)c2c(c1Cl)CCN(C[C@@H](O)CNC(=O)c1ccnc(NC3CCC3)c1)C2	5.30 to 6.30
Cc1c(OCc2cnco2)ccc2c1CCN(C[C@@H](O)CNC(=O)c1ccnc(NC3CN(C(=O)CC(C)C)C3)c1)C2	6.30 to 7.30

Entry O=C(NC[C@H](O)CN1CCc2cc(OCc3cnco3)ccc2C1)c1cc(NC2CCCC2)ncn1 needs its pIC50 filled in; supply it.
5.30 to 6.30

###

system: HAP1 MTAP-intact; experiment: SDMA in-cell western assay, HAP1 MTAP-intact cell line; type: cell-based; details: Homo sapiens
OBSERVABLE: IC50

Worked cases, IC50 given:
COCCN(C)c1nc(NC2COC2)cc(C(=O)NC[C@H](O)CN2CCc3cc(OCc4cnco4)ccc3C2)n1	< 1 µM
Cc1nocc1COc1ccc2c(c1C)CCN(C[C@@H](O)CNC(=O)c1ccnc(NC3CCC3)c1)C2	≥ 10 µM
Cc1ncoc1COc1ccc2c(c1)CCN(C[C@@H](O)CNC(=O)c1cc(NC3CCC3)ncn1)C2	1 to 10 µM
CC(=O)N1CC(Nc2cc(C(=O)NC[C@H](O)CN3CCc4cc(OCc5ocnc5C)c(F)cc4C3)nc(N3CCCCC3)n2)C1	1 to 10 µM
Cc1c(OCc2cnco2)ccc2c1CCN(C[C@@H](O)CNC(=O)c1ccnc(NC3CCN(C(=O)CC(C)C)CC3)c1)C2	≥ 10 µM
CN1CCN(c2nc(NC3COC3)cc(C(=O)NC[C@H](O)CN3CCc4c(ccc(OCc5cnco5)c4Cl)C3)n2)CC1	≥ 10 µM
Cc1c(OCc2cnco2)ccc2c1CCN(C[C@@H](O)CNC(=O)c1cc(NC3CCCCC3)ncn1)C2	≥ 10 µM
O=C(NC[C@H](O)CN1CCc2c(ccc(OCc3cnco3)c2Cl)C1)c1ccnc(NC2CCCCC2)c1	≥ 10 µM

// next entry
Entry Cc1ncoc1COc1ccc2c(c1Br)CCN(C[C@@H](O)CNC(=O)c1ccnc(NC3CCCC3)c1)C2 needs its IC50 filled in; supply it.
≥ 10 µM

###

Listed here: items and their measured IC50.
tested on: HAP1 MTAP-intact; test: SDMA in-cell western assay, HAP1 MTAP-intact cell line; assay type: cell-based; details: Homo sapiens

Worked cases, IC50 given:
CC(=O)N1CCC(Nc2cc(C(=O)NC[C@H](O)CN3CCc4cc(OCc5cnnn5C)ccc4C3)ncn2)CC1 [Compound 250]	≥ 10 µM
Cc1c(OCc2cnn[nH]2)ccc2c1CCN(C[C@@H](O)CNC(=O)c1ccnc(NC3CCC3)c1)C2 [Compound 273]	≥ 10 µM
O=C(NC[C@H](O)CN1CCc2cc(OCc3cnco3)ccc2C1)c1ccnc(NC2CCC2)c1 [Compound 74]	1 to 10 µM
O=C(NC[C@H](O)CN1CCc2c(ccc(OCc3cnco3)c2Cl)C1)c1ccc(OC2CCN(Cc3ccncc3)CC2)cc1 [Compound 301]	≥ 10 µM
Cc1ncoc1COc1ccc2c(c1)CCN(C[C@@H](O)CNC(=O)c1ccnc(NC3CCN(C(=O)C(C)(C)C)CC3)c1)C2 [Compound 640]	1 to 10 µM
Cc1ncoc1COc1ccc2c(c1)CCN(C[C@@H](O)CNC(=O)c1cccc(NC3CCC3)c1)C2 [Compound 283]	< 1 µM

// next entry
Entry CC(C)Cc1cc(C(=O)NC[C@H](O)CN2CCc3cc(OCc4cnco4)ccc3C2)cc(NC2CCC2)n1 [Compound 307] needs its IC50 filled in; supply it.
1 to 10 µM
